assay: Pharmacokinetics of NA study, single oral dose; type: in vivo, mouse; conditions: male, ALD gene-knockout (ABCD1-), mouse, in vivo; single oral 10 mg; plasma; NCA
Property Name: half-life

Incoming: Name the reported half-life value associated with the molecule CCCCCCCC/C=C\CCCCCCCCCCCCCC(=O)O
Outgoing: 62.3 h

====

experiment: Pharmacokinetics of NA study, single oral dose; format: in vivo, mouse; conditions: male, ALD gene-knockout (ABCD1-), mouse, in vivo; single oral 10 mg; plasma; NCA
Property Name: Tmax (h)
Please respond with the number in h and leave the unit unwritten.

Incoming: Name the reported Tmax value associated with the molecule CCCCCCCC/C=C\CCCCCCCCCCCCCC(=O)O
Outgoing: 2
